Biological target: T1, biotinylated monovalent EpCAM-Fc (human EpCAM ECD-Fc knob avi-his paired with Fc hole) (human, UniProt P01857 104-328 = IgG part, biotin on the avi tag (BirA co-expression))
T1 construct: also called monovalent EpCAM-Fc construct; huEPCAM-Fc-knob (avi-His) + Fc hole (wt)
Test: SPR ProteOn XPR36 off-rate, biotinylated monovalent EpCAM-Fc on NLC chip, 50 nM supernatant
readout.label: koff (s⁻¹)
Express your answer in s⁻¹, writing the number without its unit.

Query block: Given the binder Monovalent EpCAM (GG06_VH x GG01_VL) (antibody, IgG1, V domains shown, one-armed hu IgG1 PG-LALA, VH/VL-crossed Fab on Fc hole plus empty Fc knob; from supernatant) VH: QVQLVQSGSELKKPGASVKVSCKASGYTFTNYGMNWVRQAPGQGLEWMGWINTYTGQSTYAQGFTGRFVFSLDTSVSTAYLQISSLKAEDTAVYFCARFAIKGDYWGQGTLVTVSS VL: DIVMTQSPLSLPVTPGEPASISCRSSQSLLHSNGITYLYWYLQKPGQSPQLLIYQMSNRASGVPDRFSGSGSGTDFTLKISRVEAEDVGVYYCAQNLEIPRTFGQGTKLEIK , write its reported koff.
Result block: 0.00343

Query block: Return reported koff. Input binder: Monovalent EpCAM (GG03_VH x GG04_VL) (antibody, IgG1, V domains shown, one-armed hu IgG1 PG-LALA, VH/VL-crossed Fab on Fc hole plus empty Fc knob; from supernatant) VH: QVQLVQSGAEVKKPGASVKVSCKASGYTFTNYGMNWVRQAPGQRLEWMGWINTYTGESTYSQKFQGRVTITLDTSASTAYMELSSLRSEDTAVYFCARFAIKGDYWGQGTLVTVSS VL: DIQMTQSPSSLSASVGDRVTITCRASQSISSYLYWYQQKPGKAPKLLIYQASSLQSGVPSRFSGSGSGTDFTLTISSLQPEDFATYYCAQNLEIPRTFGQGTKLEIK
Result block: 0.00247

Query block: Using known records, supply koff for Monovalent EpCAM (GG07_VH x GG01_VL) (antibody, IgG1, V domains shown, one-armed hu IgG1 PG-LALA, VH/VL-crossed Fab on Fc hole plus empty Fc knob; from supernatant) VH: QVQLVQSGSELKKPGASVKVSCKASGYTFTNYGMNWVRQAPGQGLEWMGWINTYTGESTYAQGFTGRFVFSLDTSVSTAYLQISSLKAEDTAVYFCARFARSGDYWGQGTLVTVSS VL: DIVMTQSPLSLPVTPGEPASISCRSSQSLLHSNGITYLYWYLQKPGQSPQLLIYQMSNRASGVPDRFSGSGSGTDFTLKISRVEAEDVGVYYCAQNLEIPRTFGQGTKLEIK
Result block: 0.00411
